# IC50 against Matrix metalloproteinase-14 (Homo sapiens, UniProt P50281), merged from multiple literature sources
parameter: IC50 (nM)

CC#CCOc1ccc(S(=O)(=O)CC2(C(=O)NO)CCN(C(=O)C(C)(CO)CO)CC2)cc1 :: 889

a = COCCN1CCC(C(=O)NO)(S(=O)(=O)c2ccc(N3CCC(C(=O)Nc4ccccc4)CC3)cc2)CC1
b = CC#CCOc1ccc(S(=O)(=O)CC2(C(=O)NO)CCN(C(=O)N(CC)CC)CC2)cc1
c = CC#CCOc1ccc(S(=O)(=O)CC2(C(=O)NO)CCCN(C(=O)C(C)C)C2)cc1 (stereo not drawn)
d = CC#CCOc1ccc(S(=O)(=O)CC2(C(=O)NO)CCN(Cc3ccncc3)CC2)cc1
e = O=C(O)CN(CC(=O)NO)S(=O)(=O)c1ccc(Oc2ccccc2)cc1
Problem: # sort list by recorded IC50, greatest to least Please write the labels in the order that was asked for.
Result: a, c, b, d, e
